experimental-system: T1, human IL-1RAcP on 293T/17-FR cells (human, UniProt Q9NPH3 21-570)
T1 sequence (looked up): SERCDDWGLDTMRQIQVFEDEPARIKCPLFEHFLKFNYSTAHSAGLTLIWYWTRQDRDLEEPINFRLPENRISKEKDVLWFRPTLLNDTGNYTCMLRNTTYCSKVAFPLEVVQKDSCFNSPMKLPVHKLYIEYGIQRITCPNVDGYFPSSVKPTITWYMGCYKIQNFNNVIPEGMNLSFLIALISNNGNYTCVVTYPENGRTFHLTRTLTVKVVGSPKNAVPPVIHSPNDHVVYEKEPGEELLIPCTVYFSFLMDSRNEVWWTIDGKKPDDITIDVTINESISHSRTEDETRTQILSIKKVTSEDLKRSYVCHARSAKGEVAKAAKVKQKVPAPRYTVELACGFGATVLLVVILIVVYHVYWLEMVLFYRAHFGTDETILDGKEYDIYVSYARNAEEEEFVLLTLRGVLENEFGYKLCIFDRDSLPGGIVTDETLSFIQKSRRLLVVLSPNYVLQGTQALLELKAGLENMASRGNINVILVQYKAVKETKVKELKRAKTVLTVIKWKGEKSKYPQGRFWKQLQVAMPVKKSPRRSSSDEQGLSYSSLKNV
experiment-notes: cell-based or functional assay
experimental-readout: primary supernatant functional assay (% inh.), NF-kB luciferase reporter (%)

- binder: "P013.S.01.B.D06 (antibody, V domains shown, rabbit monoclonal antibody; also called P013.A.00029.D02) VH: QSLEESGGDLVKPGASLTLTCTASGFSFSSSYYMCWVRQAPGKGLEWIACIYAGSSGVTYYASWAKGRFTISDTSSTTVTLQMTSLTAADTATYFCASETDGNYFNLWGPGTLVTVSS VL: ALVMTQTPSPVSAAVGGTVTINCQASEDIYSNLAWFQQKPGQPPKLLIYRASTLASGVPSRFSGSGSGTEFTLTISGLQSDDAATYYCLGVYTYSTDIHAFGGGTEVVVK"
  reading: 80
- binder: "P013.S.02.B.G04 (antibody, V domains shown, rabbit monoclonal antibody; also called P013.A.00015.A11) VH: QSLEESGGRLVTPGTPLTLTCTVSGFSLSRCAMIWVRQAPGKGLEWIGFIGRGGSTWYASWVNGRFTISKTSTTVDLKITSPTTEDTATYFCARDGDYSDYYTFDLWGQGTLVTVSS VL: DVVMTQTPASVSERVGGTVTIKCQASQSIGSNLAWYQQKPGQPPKLLIYGASNLESGVPSRFSGSGSGTEFTLSISGVQSADAATYYCQCSGYDTTGVFPFGGGSEVVVK"
  reading: 27
- binder: "P013.S.01.B.G06 (antibody, V domains shown, rabbit monoclonal antibody; also called P013.A.00085.H05) VH: QSLEESGGRLVTPGTPLTLTCTASGFTISSYYMSWVRQAPGKGLEWIGGIATDGNTYYANWAKGRFTVSRTSTTVDLKVTSPTAEDTATYFCARGGPAYSRGTHYAMDLWGPGTLVTVSS VL: AYDMTQTPASVEVAVGGTVTIKCQASQSIYIYLAWYQQKPGQRPKQLIYDASKLASGVPSRFSGSGSGTEFTLTISGVESADAATYYCQQGATIWNVDNPFGGGTEVVVK"
  reading: 89
